# assaySystem: UniProt Q8BUD0
# Sequence (Q8BUD0 whole entry): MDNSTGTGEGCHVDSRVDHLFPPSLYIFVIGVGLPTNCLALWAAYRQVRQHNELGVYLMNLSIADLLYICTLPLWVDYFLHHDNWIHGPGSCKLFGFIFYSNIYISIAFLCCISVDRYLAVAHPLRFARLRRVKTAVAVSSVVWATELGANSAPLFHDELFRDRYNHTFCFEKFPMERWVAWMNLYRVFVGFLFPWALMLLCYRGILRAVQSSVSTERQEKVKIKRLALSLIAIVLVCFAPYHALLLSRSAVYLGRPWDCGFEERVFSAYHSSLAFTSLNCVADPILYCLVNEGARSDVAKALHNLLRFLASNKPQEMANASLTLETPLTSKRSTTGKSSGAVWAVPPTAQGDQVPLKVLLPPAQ
# experimentSummary: Mouse GPR4 cAMP assay
# Type: cell-based
Structures can show the parent of a compound that is named as a salt.
recordedEndpoint: IC50 (µM)

>  <molecule>
CCc1nn2c(C)cc(C)nc2c1Cc1ccc(-c2nnc(C3CCN(C(=O)[C@H](CO)NC)CC3)o2)cc1 [Example 38, hydrochloride]

>  <units>
µM

>  <result>
0.18

$$$$
>  <molecule>
CCc1nn2c(C)cc(C)nc2c1Cc1ccc(-n2cc(CN3CCN[C@@H](CO)C3)cn2)cc1

>  <units>
µM

>  <result>
0.255

$$$$
>  <molecule>
CCc1nn2c(C)cc(C)nc2c1Cc1ccc(-n2cc(CN3CC(N)C3)cn2)cc1

>  <units>
µM

>  <result>
0.211

$$$$
>  <molecule>
CCc1nn2c(C)cc(C)nc2c1Cc1ccc(OCC2CCNCC2)cc1 [Example 21, hydrochloride]

>  <units>
µM

>  <result>
0.096

$$$$
>  <molecule>
CCc1nn2c(C)cc(C)nc2c1Cc1ccc(-n2cc(CC3(O)CCNCC3)nn2)cc1

>  <units>
µM

>  <result>
0.534

$$$$
>  <molecule>
CCc1nn2c(C)cc(C)nc2c1Cc1ccc(OCC2CCN(C(=O)[C@H]3NCC[C@H]3O)CC2)cc1

>  <units>
µM

>  <result>
0.09

$$$$
>  <molecule>
CCc1nn2c(C)cc(C)nc2c1Cc1ccc(-n2cc(CN3CCC(N)CC3)cn2)cc1

>  <units>
µM

>  <result>
0.384

$$$$
>  <molecule>
CCc1nn2c(C)cc(C)nc2c1Cc1ccc(C(=O)NCC2CCNCC2)cc1

>  <units>
µM

>  <result>
0.366

$$$$

Measured values drawn from patent US8748435B2 for this set.
